The measured values listed here are drawn from patent EP4729529A1.

This listing pairs compounds with measured pIC50.
- tgt: UniProt:Q5VWK5
- Sequence (Q5VWK5 24-629, other chains not shown): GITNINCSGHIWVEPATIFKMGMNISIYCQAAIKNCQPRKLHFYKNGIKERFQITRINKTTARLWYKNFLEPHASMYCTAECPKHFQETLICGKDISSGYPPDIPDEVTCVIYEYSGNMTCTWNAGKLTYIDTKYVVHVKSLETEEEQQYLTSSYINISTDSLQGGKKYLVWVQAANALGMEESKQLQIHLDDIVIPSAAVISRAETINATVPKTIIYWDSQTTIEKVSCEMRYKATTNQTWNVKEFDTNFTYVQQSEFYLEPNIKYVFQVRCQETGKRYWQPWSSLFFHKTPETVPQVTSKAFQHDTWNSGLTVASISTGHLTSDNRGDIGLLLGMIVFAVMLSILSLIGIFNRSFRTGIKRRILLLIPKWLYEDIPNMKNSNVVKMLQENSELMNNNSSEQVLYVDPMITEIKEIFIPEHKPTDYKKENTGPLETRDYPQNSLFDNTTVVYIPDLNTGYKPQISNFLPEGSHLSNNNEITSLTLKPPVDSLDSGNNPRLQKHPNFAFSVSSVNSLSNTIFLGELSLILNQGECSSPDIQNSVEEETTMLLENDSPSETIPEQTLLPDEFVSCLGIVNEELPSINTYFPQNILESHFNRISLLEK
- Sequence (Q9NPF7 20-189 partner, other chains not shown): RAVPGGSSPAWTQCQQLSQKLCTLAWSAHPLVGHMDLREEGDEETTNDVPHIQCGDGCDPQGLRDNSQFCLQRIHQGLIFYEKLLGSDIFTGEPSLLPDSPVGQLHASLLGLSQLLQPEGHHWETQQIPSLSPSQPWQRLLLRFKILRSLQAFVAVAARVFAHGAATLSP
- Sequence (P29460 23-328 partner, other chains not shown): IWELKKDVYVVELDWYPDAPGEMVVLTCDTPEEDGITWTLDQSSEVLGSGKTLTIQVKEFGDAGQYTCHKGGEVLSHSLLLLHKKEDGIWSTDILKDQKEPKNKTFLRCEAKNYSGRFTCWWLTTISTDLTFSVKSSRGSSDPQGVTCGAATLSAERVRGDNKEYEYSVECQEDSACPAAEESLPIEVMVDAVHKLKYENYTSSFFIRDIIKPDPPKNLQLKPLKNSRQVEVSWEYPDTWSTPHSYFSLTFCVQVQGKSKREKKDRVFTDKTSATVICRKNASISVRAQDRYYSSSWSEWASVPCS
- procedure_summary: IL-23-stimulated pSTAT3 detection assay in PBMCs (ELISA)
- assay_conditions: rhIL23 stimulation 30 minutes, read-out: pSTAT3 inhibition/IC50
Positions of bridges follow the written chain, without caps; N, C: chain ends. Non-standard residues stand in square brackets, D forms with d. Residues, ends and D or L forms follow the SMILES beside them. Trp(7-cPr) = N[C@@H](Cc1c[nH]c2c(C3CC3)cccc12)C(=O)O; Trp(7-Me) = Cc1cccc2c(C[C@H](N)C(=O)O)c[nH]c12; 2Nal = N[C@@H](Cc1ccc2ccccc2c1)C(=O)O; AEF = NCCOc1ccc(C[C@H](N)C(=O)O)cc1; 3Pal = N[C@@H](Cc1cccnc1)C(=O)O; Cit = NC(=O)NCCC[C@H](N)C(=O)O; Pen = CC(C)(S)[C@H](N)C(=O)O; Dab = NCC[C@H](N)C(=O)O; Thp = NC1(C(=O)O)CCOCC1; Sar = CNCC(=O)O
In simple prose, pIC50 is minus the logarithm base ten of a concentration in moles per litre.

These solved cases illustrate the format of a correct answer.
INSERT INTO results (compound, assay_metric, test_result) VALUES
  ('CC(=O)N[C@H]1CC(=O)NCC[C@@H](C(=O)N[C@@H](Cc2ccc(OCCN)cc2)C(=O)N[C@@H](Cc2ccc3ccccc3c2)C(=O)NC2(C(=O)N[C@@H](CCC(=O)O)C(=O)N[C@@H](CC(N)=O)C(=O)N[C@@H](Cc3cccnc3)C(=O)N(C)CC(N)=O)CCOCC2)NC(=O)[C@H](CCC(N)=O)NC(=O)[C@H](Cc2c[nH]c3c(C)cccc23)NC(=O)[C@H]([C@@H](C)O)NC(=O)[C@H](Cc2c[nH]cn2)NC1=O [Compound 22] (Ac-DHT[Trp(7-Me)]Q[Dab][AEF][2Nal][Thp]EN[3Pal][Sar]-NH2; lactam 1-6)', 'pIC50', 10.80),
  ('CC(=O)NCCCC[C@@H]1NC(=O)[C@H](Cc2c[nH]c3c(C)cccc23)NC(=O)[C@H]([C@@H](C)O)NC(=O)[C@H](Cc2c[nH]cn2)NC(=O)[C@@H](NC(C)=O)C(C)(C)SSC(C)(C)[C@@H](C(=O)N[C@@H](Cc2ccc(OCCN)cc2)C(=O)N[C@@H](Cc2ccc3ccccc3c2)C(=O)NC2(C(=O)N[C@@H](CCC(=O)O)C(=O)N[C@@H](CC(N)=O)C(=O)N[C@@H](Cc3cccnc3)C(=O)N(C)CC(N)=O)CCOCC2)NC1=O [Compound 3] (Ac-[Pen]HT[Trp(7-Me)]K(Ac)[Pen][AEF][2Nal][Thp]EN[3Pal][Sar]-NH2; disulfide 1-6)', 'pIC50', 11.18);

Memo: CC(=O)N[C@@H]1C(=O)N[C@@H](Cc2c[nH]cn2)C(=O)N[C@@H]([C@@H](C)O)C(=O)N[C@@H](Cc2c[nH]c3c(C4CC4)cccc23)C(=O)N[C@@H](CCC(N)=O)C(=O)N[C@H](C(=O)N[C@@H](Cc2ccc(OCCN)cc2)C(=O)N[C@@H](Cc2ccc3ccccc3c2)C(=O)NC2(C(=O)N[C@@H](CCC(=O)O)C(=O)N[C@@H](CC(N)=O)C(=O)N[C@@H](Cc3cccnc3)C(=O)N(C)CC(N)=O)CCOCC2)C(C)(C)SSC1(C)C [Compound 13] (Ac-[Pen]HT[Trp(7-cPr)]Q[Pen][AEF][2Nal][Thp]EN[3Pal][Sar]-NH2; disulfide 1-6) , reported pIC50: 12.00

Kindly note the recorded pIC50 for CC(=O)N[C@@H]1C(=O)N[C@@H](Cc2c[nH]cn2)C(=O)N[C@@H]([C@@H](C)O)C(=O)N[C@@H](Cc2c[nH]c3c(C)cccc23)C(=O)N[C@@H](CCC(N)=O)C(=O)N[C@H](C(=O)N[C@@H](Cc2ccc(OCCN)cc2)C(=O)N[C@@H](Cc2ccc3ccccc3c2)C(=O)NC2(C(=O)N[C@@H](CCC(=O)O)C(=O)N[C@@H](CC(N)=O)C(=O)N[C@@H](Cc3cccnc3)C(=O)N(C)CC(N)=O)CCOCC2)C(C)(C)SSC1(C)C [Compound 1] (Ac-[Pen]HT[Trp(7-Me)]Q[Pen][AEF][2Nal][Thp]EN[3Pal][Sar]-NH2; disulfide 1-6) , which is 11.15

According to the records, this compound CC(=O)N[C@@H]1C(=O)N[C@@H](Cc2c[nH]cn2)C(=O)N[C@@H]([C@@H](C)O)C(=O)N[C@@H](Cc2c[nH]c3c(C)cccc23)C(=O)N[C@@H](CCCNC(N)=O)C(=O)N[C@H](C(=O)N[C@@H](Cc2ccc(OCCN)cc2)C(=O)N[C@@H](Cc2ccc3ccccc3c2)C(=O)NC2(C(=O)N[C@@H](CCC(=O)O)C(=O)N[C@@H](CC(N)=O)C(=O)N[C@@H](Cc3cccnc3)C(=O)N(C)CC(N)=O)CCOCC2)C(C)(C)SSC1(C)C [Compound 2] (Ac-[Pen]HT[Trp(7-Me)][Cit][Pen][AEF][2Nal][Thp]EN[3Pal][Sar]-NH2; disulfide 1-6) displays pIC50 of 11.17
